GI50 listing for selected compounds.
Tested on: RPMI-8226
assay_notes: NCI tumour cell line growth inhibition, 48 h
The source made the active and inactive calls. Rule as the data show it: active = GI50 up to about 1.1 µM and inactive = higher.

Cc1ccc(C(=O)C2C=C(c3ccc(C)cc3)SC3C=CCC32)cc1 (stereo not given) ... 16.3 µM (inactive)
Clc1cc2nsnc2c(Cl)n1 ... 22.2 µM (inactive)
O=[N+]([O-])c1ccc(N/N=C2/CC3=C2CCCCCCCCCC3)c([N+](=O)[O-])c1 ... > 100 µM (inactive)
C[n+]1c2ccccc2c(NCC(=O)O)c2ccccc21 ... > 100 µM (inactive)

For the next question, use this compound.
# query: GI50 of entry CCOC(=O)C1(C#N)C(c2ccccc2)CC(O)(c2ccc(Cl)cc2)C(C(=O)c2ccc(Cl)cc2)C1c1ccccc1 (stereo not given)
76.6 µM (inactive)

Ref: ChEMBL document CHEMBL1201862
